# Tested on: RPMI-8226
# method summary: NCI tumour cell line growth inhibition, 48 h
Calls of active or inactive are those of the source. Rule as the data show it: active = GI50 up to about 1.1 µM and inactive = higher.
Return exactly one item of yes = active, no = inactive

Cc1ccc(/N=N/c2c(O)ccc3cc(S(=O)(=O)O)ccc23)cc1: no

Write down the call the test reported for this compound. Item: CS(=O)(=O)c1ccc(C(=O)O[C@@H]2C(=O)N3CC[C@H]4OC(O)[C@@H]2[C@H]43)cc1 (some centres undefined) no

Same for COc1cc2c(c(O)c1OC)-c1c(cc(OC)c(OC)c1OC)CC(C)C(C)C2 (centres undefined) no

// next record COc1cc(C(C)c2cc3c(cc2OCCCCOc2cc4c(cc2C(C)c2cc(OC)c(OC)c(OC)c2)OCO4)OCO3)cc(OC)c1OC (centres undefined) no

Then C=C1C(=O)OCC2C(C(=O)O)=CC3C(C)C(C)=CC123 (centres undefined) ? no

Next: CC(=O)c1ccc2c(c1)c1c(C)c3c[n+](C)ccc3c(C)c1n2C no

What about this compound? CN(CCCNC(=O)c1nn(-c2ccccc2)c2c1ccc1ccccc12)CCCNC(=O)c1nn(-c2ccccc2)c2c1ccc1ccccc12 no

Okay, and CN(C)C(=O)/C=C/c1c[nH]c(=O)[nH]c1=O ? no

Also, COC(=O)C1=C(C)N(NC(N)=O)C2(N)N(NC(N)=O)C(C)=C(C(=O)OC)C12C#N (centres undefined) please. no

Can you check CN(C)C(=C1C(Br)=C(Br)C(Br)=C1Br)N(C)C next? no
